# experimental-protocol: chemical genetic growth profiling, strain panel (AID 1159580);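 also: tested at 20 µM; growth read once vehicle control cultures reached saturation at 30 °C; 1 = growth at the plate median or of vehicle wells; lower values mean less growth of the strain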
# condition-summary: S. cerevisiae deletion strains, growth OD, locus YMR263W, strain SAP30, stronger effect = lower value
About 2,000 (36%) of roughly 5,500 compounds were called active. Inconclusive results (about 18%) are left out. The list shows a part of the results.
assay-metric: normalized growth

| compound | assay-metric | value-reported |
| --- | --- | --- |
| Cc1c(C)c(C)c(CSc2nc3ccccc3[nH]2)c(C)c1C | normalized growth | 1.03 |
| CC(C)(C)NC(=S)NC1CCN(Cc2ccccc2)CC1 | normalized growth | 0.992 |
| Cc1nn(-c2ccccc2)nc1-c1nnc(-c2ccc(Cl)cc2)o1 | normalized growth | 1.05 |
| COc1c(C)c2c(c(O)c1C/C=C(\C)CCC(=O)O)C(=O)OC2 | normalized growth | 0.765 |
| CCc1cccc(C)c1NC(=O)CC(C)(C)CC(=O)O | normalized growth | 0.967 |
| O=C(CN1CCOCC1)Nc1cc(C(F)(F)F)cc(C(F)(F)F)c1 | normalized growth | 0.986 |
| O=C1NC2(CCN(Cc3ccccc3)CC2)Oc2ccccc21 | normalized growth | 1.03 |
